This section presents binders with their documented Ratio rCT/rAmylin binding values.
Target: T1, rat calcitonin receptor (rat, UniProt P32214 25-516)
T1 construct: whole, on cells; Membranes of BHK tk'ts 13 cells transiently transfected with the rat calcitonin receptor; also called rCTR; rat calcitonin (a) receptor
T1 sequence (looked up): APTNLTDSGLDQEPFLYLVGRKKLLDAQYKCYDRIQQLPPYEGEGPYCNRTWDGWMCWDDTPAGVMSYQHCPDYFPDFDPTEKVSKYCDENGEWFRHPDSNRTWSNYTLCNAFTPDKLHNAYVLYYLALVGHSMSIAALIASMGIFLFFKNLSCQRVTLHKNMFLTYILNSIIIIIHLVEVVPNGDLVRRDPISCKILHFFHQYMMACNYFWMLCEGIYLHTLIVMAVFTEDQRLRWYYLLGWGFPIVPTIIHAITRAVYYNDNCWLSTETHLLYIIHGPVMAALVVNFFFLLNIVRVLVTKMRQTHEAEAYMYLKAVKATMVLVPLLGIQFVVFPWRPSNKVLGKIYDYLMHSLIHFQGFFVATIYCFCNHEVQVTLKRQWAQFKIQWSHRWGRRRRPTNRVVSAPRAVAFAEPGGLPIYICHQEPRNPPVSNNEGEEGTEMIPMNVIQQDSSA
Assay: IC50 at rCTR divided by IC50 at rAmylin-R (reference)
Numbered stars: 1 amine (or outer) side, 2 acyl side, 3 side chain; on linkers, the order of the positions; unused ones are H or OH. Bridge positions count the residues as written; N and C are the ends. * marks the point of attachment. C20 diacid = O=C(O)CCCCCCCCCCCCCCCCCCC(=O)*; γGlu = O=C(O)[C@H](CCC(=O)[*:2])N[*:1]
Would you mind answering with just the numeric figure?

Solved cases below.
- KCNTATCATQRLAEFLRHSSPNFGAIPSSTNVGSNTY (C20 diacid-gGlu-2xOEG on the alpha amino group of the N-terminal residue (Lys 1); disulfide bridge Cys2-Cys7; C-terminal amide, modifications are with respect to human amylin; also called compound 19): 93.6
- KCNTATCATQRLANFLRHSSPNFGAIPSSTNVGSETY (C20 diacid-gGlu on the alpha amino group of the N-terminal residue (Lys 1); disulfide bridge Cys2-Cys7; C-terminal amide, modifications are with respect to human amylin; also called compound 23) [N^α1-[(4S)-4-carboxy-4-(19-carboxynonadecanoylamino)butanoyl]-[Arg17,Pro21,Pro27,Glu35]-h-amylin]: 71.3
- {C20 diacid-γGlu}-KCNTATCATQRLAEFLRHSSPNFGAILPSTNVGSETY-NH2 (disulfide 2-7, modifications are with respect to human amylin; also called compound 33): 12.6

Could you now consider this next binder?
In: Give the reported value of Ratio rCT/rAmylin binding for this record: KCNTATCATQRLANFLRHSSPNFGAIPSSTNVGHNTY (C20 diacid-gGlu on the alpha amino group of the N-terminal residue (Lys 1); disulfide bridge Cys2-Cys7; C-terminal amide, modifications are with respect to human amylin; also called compound 40) [N^α1-[(4S)-4-carboxy-4-(19-carboxynonadecanoylamino)butanoyl]-[Arg17,Pro21,Pro27,His34]-h-amylin]
Out: 46.2

Just for reference, patent US20140087995A1 is where these values come from.
